# ASSAY_SYSTEM: Cytochrome P450 1A2 (Homo sapiens, UniProt P05177); further: in other assays of this panel Not Active means under 50% inhibition at 10 µM
# Sequence (P05177 whole entry): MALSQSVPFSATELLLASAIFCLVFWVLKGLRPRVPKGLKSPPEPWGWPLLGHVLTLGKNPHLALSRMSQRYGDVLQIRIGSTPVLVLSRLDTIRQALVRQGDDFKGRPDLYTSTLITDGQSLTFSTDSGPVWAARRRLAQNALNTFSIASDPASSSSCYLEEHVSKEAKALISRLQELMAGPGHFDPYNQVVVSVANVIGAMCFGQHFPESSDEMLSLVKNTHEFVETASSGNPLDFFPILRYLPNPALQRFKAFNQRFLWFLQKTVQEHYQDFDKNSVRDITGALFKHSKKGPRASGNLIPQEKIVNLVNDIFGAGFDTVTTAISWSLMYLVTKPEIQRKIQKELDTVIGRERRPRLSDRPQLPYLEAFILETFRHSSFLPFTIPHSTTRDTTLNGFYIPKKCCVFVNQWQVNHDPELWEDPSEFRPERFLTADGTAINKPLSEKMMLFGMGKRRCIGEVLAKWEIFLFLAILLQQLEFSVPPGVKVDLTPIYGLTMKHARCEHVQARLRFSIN
# CONDITION_PARAMETERS: bti-tn-5b1-4
MEASURED_QUANTITY: Ki

| COMPOUND | MEASURED_QUANTITY | ENDPOINT_RESULT |
| --- | --- | --- |
| ClC(Cl)Cl [CHLOROFORM] | Ki | Not Active |
| CC(C)(C)c1ccc(C(O)CCCN2CCC(C(O)(c3ccccc3)c3ccccc3)CC2)cc1 (configuration not stated) | Ki | Not Active |
| CC(C)CC(N(C)C)C1(c2ccc(Cl)cc2)CCC1 (configuration not stated) | Ki | Not Active |
| Nc1ccn([C@@H]2CS[C@H](CO)O2)c(=O)n1 | Ki | Not Active |
| CCN1CC(CCN2CCOCC2)C(c2ccccc2)(c2ccccc2)C1=O (configuration not stated) | Ki | Not Active |
| Cc1ncc([N+](=O)[O-])n1CCO | Ki | Not Active |
| CC(C)(Oc1ccc(C2CCCc3ccccc32)cc1)C(=O)O (configuration not stated) | Ki | Not Active |
| C#C[C@]1(OC(C)=O)CC[C@H]2[C@@H]3CCC4=CC(=O)CC[C@@H]4[C@H]3CC[C@@]21C [NORETHINDRONE ACETATE] | Ki | Not Active |
| C[C@]12CC[C@@H]3c4ccc(OC(=O)c5ccccc5)cc4CC[C@H]3[C@@H]1CC[C@@H]2O [ESTRADIOL BENZOATE] | Ki | Not Active |
| CCC1=C[C@@H]2CN(C1)Cc1c([nH]c3ccccc13)[C@@](C(=O)OC)(c1cc3c(cc1OC)N(C)[C@H]1[C@@](O)(C(=O)OC)[C@H](OC(C)=O)[C@]4(CC)C=CCN5CC[C@]31[C@@H]54)C2 | Ki | Not Active |
| COc1cccc2c1C(=O)c1c(O)c3c(c(O)c1C2=O)C[C@@](O)(C(=O)CO)C[C@@H]3O[C@H]1C[C@H](N)[C@@H](O)[C@H](C)O1 [EPIRUBICIN] | Ki | Not Active |
| O=C(O)Cc1ccccc1Nc1c(Cl)cccc1Cl | Ki | Not Active |
| CC(C(=O)O)c1cccc(C(=O)c2ccccc2)c1 (configuration not stated) | Ki | Not Active |
| CCN(CC)CCOC(=O)c1ccc(N)cc1 | Ki | Not Active |
| CN1C(=O)COc2c(C(=O)NC3CN4CCC3CC4)cc(Cl)cc21 (configuration not stated) | Ki | Not Active |
| O=C(c1ccc(OCCN2CCCCC2)cc1)c1c(-c2ccc(O)cc2)sc2cc(O)ccc12 | Ki | Not Active |
| COc1ccc2c(c1)c(CC(=O)O)c(C)n2C(=O)c1ccc(Cl)cc1 | Ki | Not Active |

====

# TEST_DETAILS: DRUGMATRIX: Leukotriene, BLT (LTB4) radioligand binding (ligand: [3H]LTB4)
# Format: cell membranes, Membrane
# CONDITION_PARAMETERS: u-937; Not Active = under 50% inhibition at 10 µM

| COMPOUND | IC50 |
| --- | --- |
| Cc1ccc(S(=O)(=O)NC(=O)NN2CC3CCCC3C2)cc1 (stereo not drawn) [GLICLAZIDE] | Not Active |
| CC(=O)Nc1ccc(O)cc1 | Not Active |
| C/C=C/C[C@@H](C)[C@@H](O)[C@H]1C(=O)N[C@@H](CC)C(=O)N(C)CC(=O)N(C)[C@@H](CC(C)C)C(=O)N[C@@H](C(C)C)C(=O)N(C)[C@@H](CC(C)C)C(=O)N[C@@H](C)C(=O)N[C@H](C)C(=O)N(C)[C@@H](CC(C)C)C(=O)N(C)[C@@H](CC(C)C)C(=O)N(C)[C@@H](C(C)C)C(=O)N1C | Not Active |

====

# TEST_DETAILS: DRUGMATRIX: Calcium Channel Type L, Dihydropyridine radioligand binding (ligand: [3H] Nitrendipine)
# Assay type: cell membranes, Rattus norvegicus, Wistar, Cerebral cortex, Membrane
# CONDITION_PARAMETERS: Not Active = under 50% inhibition at 10 µM
MEASURED_QUANTITY: Ki

| COMPOUND | ENDPOINT_RESULT |
| --- | --- |
| CCN(CC)CCOC(=O)c1ccc(N)cc1 | Not Active |
| C[C@](O)(CS(=O)(=O)c1ccc(F)cc1)C(=O)Nc1ccc(C#N)c(C(F)(F)F)c1 [(R)-BICALUTAMIDE] | Not Active |
| CC(C)CC(N(C)C)C1(c2ccc(Cl)cc2)CCC1 (stereo unspecified) | Not Active |
| COc1ccc2c(c1)c(CC(=O)O)c(C)n2C(=O)c1ccc(Cl)cc1 | Not Active |
| C[C@]1(Cn2ccnn2)[C@H](C(=O)O)N2C(=O)C[C@H]2S1(=O)=O | Not Active |
| CCCC(=O)Nc1ccc(OCC(O)CNC(C)C)c(C(C)=O)c1 (stereo unspecified) | Not Active |

====

# TEST_DETAILS: DRUGMATRIX: Phosphodiesterase PDE4 enzyme inhibition (substrate: [3H]cAMP + cAMP)
# CONDITION_PARAMETERS: u-937; Not Active = under 50% inhibition at 10 µM

| MOLECULE | IC50 |
| --- | --- |
| Cc1nccn1CC1CCc2c(c3ccccc3n2C)C1=O (stereo not drawn) [ONDANSETRON] | Not Active |
| Oc1ccc(OCc2ccccc2)cc1 [MONOBENZONE] | Not Active |
| COCCCOc1ccnc(C[S+]([O-])c2nc3ccccc3[nH]2)c1C (stereo not drawn) [RABEPRAZOLE] | Not Active |
| CCn1cc(C(=O)O)c(=O)c2cc(F)c(N3CCN(C)CC3)cc21 [PEFLOXACIN] | Not Active |
| COc1ccc2c(c1)[C@]13CCCC[C@@H]1[C@H](C2)N(C)CC3 [DEXTROMETHORPHAN] | Not Active |
| C[C@]12CC[C@@H]3c4ccc(OC(=O)c5ccccc5)cc4CC[C@H]3[C@@H]1CC[C@@H]2O [ESTRADIOL BENZOATE] | Not Active |
| NC(=O)c1cnccn1 [PYRAZINAMIDE] | Not Active |
| Cc1onc(-c2ccccc2)c1-c1ccc(S(N)(=O)=O)cc1 [VALDECOXIB] | Not Active |
| C[C@H]1C[C@H]2[C@@H]3CCC4=CC(=O)C=C[C@]4(C)[C@@]3(Cl)[C@@H](O)C[C@]2(C)[C@@]1(O)C(=O)CO [BECLOMETHASONE] | Not Active |
| O=C(c1ccc(OCCN2CCCCC2)cc1)c1c(-c2ccc(O)cc2)sc2cc(O)ccc12 [RALOXIFENE] | Not Active |
| CCCN(CCC)C(=O)C(CCC(=O)O)NC(=O)c1ccccc1 (stereo not drawn) [PROGLUMIDE] | Not Active |
| Cc1cccc(Nc2ccncc2S(=O)(=O)NC(=O)NC(C)C)c1 [TORSEMIDE] | Not Active |
| CC1=C(CC(=O)O)c2cc(F)ccc2/C1=C\c1ccc([S+](C)[O-])cc1 (stereo not drawn) | Not Active |
| CCOC(=O)C1=C(C)NC(C)=C(C(=O)OC)C1c1cccc([N+](=O)[O-])c1 (stereo not drawn) [NITRENDIPINE] | Not Active |
| Nc1c(CC(=O)O)cccc1C(=O)c1ccc(Br)cc1 [BROMFENAC] | Not Active |
| COc1cccc2c1C(=O)c1c(O)c3c(c(O)c1C2=O)C[C@@](O)(C(=O)CO)C[C@@H]3O[C@H]1C[C@H](N)[C@@H](O)[C@H](C)O1 [EPIRUBICIN] | Not Active |
| CC(C)C[C@H](NC(=O)[C@@H](O)[C@H](N)Cc1ccccc1)C(=O)O [UBENIMEX] | Not Active |
| CCCC(=O)Nc1ccc(OCC(O)CNC(C)C)c(C(C)=O)c1 (stereo not drawn) [ACEBUTOLOL] | Not Active |

====

# ASSAY_SYSTEM: UniProt P08173
# Sequence (P08173 whole entry): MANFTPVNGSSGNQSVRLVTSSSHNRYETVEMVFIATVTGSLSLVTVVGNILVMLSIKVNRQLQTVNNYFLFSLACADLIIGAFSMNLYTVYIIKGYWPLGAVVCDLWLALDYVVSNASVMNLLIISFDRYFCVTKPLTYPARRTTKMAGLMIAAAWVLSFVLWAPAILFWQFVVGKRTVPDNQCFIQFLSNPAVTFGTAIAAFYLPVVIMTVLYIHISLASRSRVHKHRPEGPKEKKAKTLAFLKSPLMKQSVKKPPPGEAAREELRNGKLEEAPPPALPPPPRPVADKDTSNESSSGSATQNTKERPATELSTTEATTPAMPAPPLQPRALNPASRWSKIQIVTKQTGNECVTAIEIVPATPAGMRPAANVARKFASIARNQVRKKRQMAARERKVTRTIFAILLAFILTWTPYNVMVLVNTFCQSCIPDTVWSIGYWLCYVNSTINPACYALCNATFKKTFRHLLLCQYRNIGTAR
# Format: cell membranes, CHO-K1, Membrane
# CONDITION_PARAMETERS: cho-k1
MEASURED_QUANTITY: IC50

| COMPOUND | ENDPOINT_RESULT |
| --- | --- |
| CC1(C)O[C@@H]2C[C@H]3[C@@H]4C[C@H](F)C5=CC(=O)C=C[C@]5(C)[C@H]4[C@@H](O)C[C@]3(C)[C@]2(C(=O)CO)O1 [FLUNISOLIDE] | Not Active |
| [H]/N=C(/N)N[C@H]1[C@H](O)[C@@H](O)[C@H](O[C@@H]2O[C@@H](C)[C@](O)(C=O)[C@H]2O[C@@H]2O[C@@H](CO)[C@H](O)[C@@H](O)[C@@H]2NC)[C@@H](N/C(N)=N\[H])[C@@H]1O | Not Active |
| C=CCN1CC[C@]23c4c5ccc(O)c4O[C@H]2C(=O)CC[C@@]3(O)[C@H]1C5 | Not Active |
